STUDY_SYSTEM: hQC (Homo sapiens)
TEST: Fluorometric assay of glutaminyl cyclase (QC) inhibition, H-Gln-βNA or H-Gln-AMC substrate
Format: biochemical
STATED_CONDITIONS: read-out: IC50
QUANTITY: IC50 (µM)
Could you give me the number in µM? Just the number is fine.

IC50 in this record for CC1=CC(C)C(C2/C(=N/C(C)C)NC(=O)N2c2ccc3[nH]cnc3c2)CC1 (stereo not shown) : 0.004

IC50 in this record for CC(CC1/C(=N/C2CCCCCC2)NC(=S)N1c1ccc2nc[nH]c2c1)CC(C)(C)C (stereo not shown) : 7.6

IC50 in this record for COCC/N=C1/NC(=O)N(c2ccc3[nH]cnc3c2)C1c1ccc(C)cc1 (stereo not shown) : 1.3

IC50 in this record for O=C1N/C(=N/Cc2ccccc2)C(c2ccccc2)N1CCCn1ccnc1 (stereo not shown) : 8.5

###

Kindly state IC50 for each of the entries shown.
STUDY_SYSTEM: hQC (Homo sapiens, UniProt Q16769)
Sequence (Q16769 29-361): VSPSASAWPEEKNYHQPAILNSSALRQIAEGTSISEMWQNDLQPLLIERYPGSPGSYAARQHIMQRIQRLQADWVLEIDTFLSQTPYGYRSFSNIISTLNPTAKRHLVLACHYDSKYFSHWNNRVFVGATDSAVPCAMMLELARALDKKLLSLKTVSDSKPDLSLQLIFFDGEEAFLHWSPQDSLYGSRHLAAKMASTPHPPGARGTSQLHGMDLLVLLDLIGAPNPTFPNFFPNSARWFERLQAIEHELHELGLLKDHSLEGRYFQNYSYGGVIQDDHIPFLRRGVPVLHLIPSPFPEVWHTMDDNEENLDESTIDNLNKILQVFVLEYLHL
TEST: Fluorometric assay of glutaminyl cyclase (QC) inhibition, H-Gln-βNA or H-Gln-AMC substrate
Format: biochemical
STATED_CONDITIONS: read-out: IC50
Note: state the figure and append the unit.

IC50 in this record for O=C1N/C(=N\CCCN2CCOCC2)C(c2ccnc3ccccc23)N1c1ccc2[nH]cnc2c1 (stereo not shown) : 4.9 µM

IC50 in this record for O=C(C/N=C1\NC(=O)N(c2ccc3nc[nH]c3c2)C1c1c(F)ccc(Cl)c1F)N1CCCCC1 (stereo not shown) : 4.9 µM

IC50 in this record for O=C1N/C(=N/CCc2c[nH]c3ccccc23)C(c2cccc(F)c2)N1CCCn1ccnc1 (stereo not shown) : 3.1 µM

IC50 in this record for CCCCC1/C(=N/C(c2ccccc2)c2ccccc2)NC(=O)N1CCCn1ccnc1 (stereo not shown) : 5.8 µM

###

Kindly state IC50 for each of the entries shown.
STUDY_SYSTEM: hQC (Homo sapiens, UniProt Q16769)
TEST: Fluorometric assay of glutaminyl cyclase (QC) inhibition, H-Gln-βNA or H-Gln-AMC substrate
Assay type: biochemical
STATED_CONDITIONS: read-out: IC50
Could you give me the number in µM? Just the number is fine.

IC50 in this record for CN(C)c1ccc(C2/C(=N\Cc3cccnc3)NC(=O)N2c2ccc3[nH]cnc3c2)cc1 (centres unmarked) [Compound 180] : 0.4

IC50 in this record for O=C(C/N=C1\NC(=O)N(CCCn2ccnc2)C1c1ccccc1F)N1CCc2ccccc2C1 (centres unmarked) [Compound 76] : 5.8

IC50 in this record for O=C1N/C(=N/Cc2cccnc2)C(c2ccc3ccccc3c2)N1c1ccc2[nH]cnc2c1 (centres unmarked) [Compound 221] : 6.7

IC50 in this record for O=C1N/C(=N\C(c2ccccc2)c2ccccc2)C(C2CCC=CO2)N1CCCn1ccnc1 (centres unmarked) [Compound 82] : 9.4

IC50 in this record for CCCC/N=C1\NC(=O)N(CCCn2ccnc2)C1c1cccc(F)c1F (centres unmarked) [Compound 36] : 6.7

IC50 in this record for O=C1N/C(=N\CCC(c2ccccc2)c2ccccc2)C(c2ccccc2Cl)N1CCCn1ccnc1 (centres unmarked) [Compound 110] : 6.7

IC50 in this record for O=C1N/C(=N\c2ccc3c(c2)OCCO3)C(C2CCC=CO2)N1CCCn1ccnc1 (centres unmarked) [Compound 30] : 6.7

IC50 in this record for O=C1N/C(=N\CCC(c2ccccc2)c2ccccc2)C(c2ccccc2)N1CCCn1ccnc1 (centres unmarked) [Compound 105] : 3.1
